procedure.details: NCI Yeast Anticancer Drug Screen. Data for the sgs1 mgt1 strain (AID 161);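 note: 0% = growth of cultures given vehicle only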
recorded.conditions: S. cerevisiae sgs1 mgt1 strain, at 50.0 µM, active compounds read high
Compounds without any hit were thinned out: in the full panel of roughly 79,000, 15% have a hit.
// growth inhibition lookup, one value per entry
The reply should contain only the number, in %.

CC(=O)OC1CCC2(C)C(CCC3C4CCC(OC(C)=O)C4(C)CCC32)O1 (stereo unspecified); 43.6
Cc1ccc(S(=O)(=O)C23C(N=NC2(C)C)C3(C)C)cc1 (stereo unspecified); 1.25

Exam item: Quick one: growth inhibition for `CC(C)(C)OC(=O)NOc1ccc([N+](=O)[O-])cc1[N+](=O)[O-]` ?
Marked response: 99.5

Exam item: Can you check `N=C1N(c2ccccc2)C(=S)C(=Nc2ccccc2)N1c1ccccc1` next?
Marked response: 84

Exam item: `c1ccc(-c2conc2-c2ccccc2)cc1` , same question.
Marked response: 31.4

Exam item: Note, next up: `COc1cc(/C=C/C(=O)NCCCCN=[N+]=[N-])ccc1OCc1ccccc1`
Marked response: 27.4
